The origin of these recorded values is ChEMBL document CHEMBL1201861.

Catalogue of IC50 readings, one per entry.
# Tested on: LU-99A;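 also: growth inhibition of LU-99A cells, read out with a cell viability assay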
# method.notes: cells
# Format: functional, cell-based, Homo sapiens
# stated.conditions: Homo sapiens, LU-99A
# Description: SANGER: Inhibition of human LU-99A cell growth in a cell viability assay.

compound | IC50
CCC/C=C/C=C/C(=O)O[C@H]1/C(=C/C(=O)OC)C[C@H]2C[C@H]([C@@H](C)O)OC(=O)C[C@H](O)C[C@@H]3C[C@H](OC(C)=O)C(C)(C)[C@](O)(C[C@@H]4C/C(=C/C(=O)OC)C[C@H](/C=C/C(C)(C)[C@]1(O)O2)O4)O3 [BRYOSTATIN 1] | > 0.008 µM
COc1cccc2c1C(=O)c1c(O)c3c(c(O)c1C2=O)C[C@@](O)(C(=O)CO)C[C@@H]3O[C@H]1C[C@H](N)[C@H](O)[C@H](C)O1 [DOXORUBICIN] | 0.147 µM
C=C(c1ccc(C(=O)O)cc1)c1cc2c(cc1C)C(C)(C)CCC2(C)C [BEXAROTENE] | > 8 µM
Oc1ccc2ccccc2c1SSc1c(O)ccc2ccccc12 | > 32 µM
COc1cc2c(Nc3ccc(NC(=O)c4ccccc4)cc3)ncnc2cc1OCCCN1CCOCC1 | > 4 µM
Nc1cccc2c1CN(C1CCC(=O)NC1=O)C2=O (stereo not drawn) [LENALIDOMIDE] | > 5 µM
CS(=O)(=O)c1ccc(C(=O)Nc2ccc(Cl)c(-c3ccccn3)c2)c(Cl)c1 [VISMODEGIB] | > 10 µM
CC(C)CCN1c2nc(Nc3cc(F)c(O)c(F)c3)ncc2N(C)C(=O)C1C (stereo not drawn) | > 5 µM

---

Catalogue of pIC50 readings, one per entry.
# System: DMS-273
# method.notes: cells
# Format: functional, cell-based, Homo sapiens
# stated.conditions: Homo sapiens, DMS-273
# Description: SANGER: Inhibition of human DMS-273 cell growth in a cell viability assay.
pIC50: −log10 of the molar value.

molecule | pIC50
CC(C)CCN1c2nc(Nc3cc(F)c(O)c(F)c3)ncc2N(C)C(=O)C1C (stereo not drawn) | < 5.30
O=C(O)c1ccc(-c2c[nH]c3ncc(-c4ccccc4)cc23)cc1C1CCCC1 | < 4.80
Nc1ccn([C@@H]2O[C@H](CO)[C@@H](O)C2(F)F)c(=O)n1 | 8.51

---

# System: GOTO;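 also: growth inhibition of GOTO cells, read out by a cell viability assay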
# method.notes: cells
# Type: functional, cell-based, Homo sapiens
# stated.conditions: Homo sapiens, GOTO
# Description: SANGER: Inhibition of human GOTO cell growth in a cell viability assay.

compound | IC50
COc1cc2ncn(-c3cc(OCc4ccccc4C(F)(F)F)c(C(N)=O)s3)c2cc1OC [GW843682X] | > 256 nM
Cc1cc([N+](=O)[O-])ccc1NS(=O)(=O)c1cc(Cl)ccc1Cl | > 32000 nM
N#Cc1c(O)c2c(-c3ccc(-c4ccccc4O)cc3)csc2[nH]c1=O | 395 nM
C#Cc1cccc(Nc2ncnc3cc(OCCOC)c(OCCOC)cc23)c1 | > 2000 nM
CS(=O)(=O)c1ccc(C(=O)Nc2ccc(Cl)c(-c3ccccn3)c2)c(Cl)c1 | > 10000 nM

---

# Tested on: LB996-RCC
# method.notes: cells
# Type: functional, cell-based, Homo sapiens
# stated.conditions: lb996-rcc
# Description: SANGER: Inhibition of human LB996-RCC cell growth in a cell viability assay.
pIC50: −log10 of the molar value.

sequence.data | pIC50
BLEOMYCIN | 6.76

---

# Tested on: J82
# method.notes: cells
# Assay type: functional, cell-based, Homo sapiens
# stated.conditions: Homo sapiens, J82
# Description: SANGER: Inhibition of human J82 cell growth in a cell viability assay.
pIC50: −log10 of the molar value. Where a name gives a salt, the structure may show the parent alone.

compound | pIC50
CC(C)c1ccccc1Cc1cc(C(=O)Nc2ccc(S(=O)(=O)c3ccccc3C(C)(C)C)cc2)c(O)c(O)c1O | 5.95
COC1=CC(c2cc3ccccc3[nH]2)=N/C1=C\c1[nH]c(C)cc1C [OBATOCLAX MESYLATE] | 6.96
CN(C)C(=N)NC(=N)N | 1.89
